assay: solubility, shake flask method; type: physicochemical; conditions: FaSSIF, thermodynamic from solid
observable: solubility at 2 h

For C=CC(=O)NC1CCN(c2ncc3ncnc(Nc4ccc(Oc5ccc6c(c5)ncn6C)c(C)c4)c3n2)CC1 the compound record lists solubility at 2 h as < 1 µg/mL

----------
experiment: solubility, shake flask method; assay type: physicochemical; conditions: pH 4.5, aqueous buffer, kinetic from dmso stock
observable: solubility at 2 h

For this molecule ( C=CC(=O)NC1CCN(c2ncc3ncnc(Nc4ccc(Oc5ccc6c(c5)ncn6C)c(C)c4)c3n2)CC1 ), measured solubility at 2 h is < 1 µg/mL

----------
system: Ba/F3 HER2^YVMA; test: proliferation assay Ba/F3 HER2^YVMA; assay type: cell-based; conditions: Mus musculus, BaF3, read-out: Antiproliferative effect IC50 Ba/F3 HER2^YVMA
observable: IC50 (nM)
Answer with a number only, understood to be in nM.

Noted for C=CC(=O)NC1CCN(c2ncc3ncnc(Nc4ccc(Oc5ccc6c(c5)ncn6C)c(C)c4)c3n2)CC1 [zongertinib] : its IC50 reads 16

These entries and their values trace back to paper PMC11726021.
